B1: OR4K15 (parent)
chain: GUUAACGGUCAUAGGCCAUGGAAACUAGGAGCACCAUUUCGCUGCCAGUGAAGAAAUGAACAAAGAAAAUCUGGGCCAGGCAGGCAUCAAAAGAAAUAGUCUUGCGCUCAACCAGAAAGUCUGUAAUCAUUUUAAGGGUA

variants of: B1; test: self-cleavage, relative activity (ratio to wild type); higher = more cleavage; in vitro, sequencing; the parent is a self-cleaving ribozyme
self-cleavage for assorted variants

Example entries begin here.
- Sequence Content: "GUUAACGGUCAUAGGCCAUGGAAACUAGGAGCACCAUUUCGCUGCCAGUGAAGAGAUGAACAAAGAAAAUCUGGGCCAGGCAGGCAUCAAAAGAAAUAGUCUUGCGCUCAACCAGAAAGUCUGUAAUCAUUUUGAGGGUA [A55G A134G]"
  self-cleavage: 1.23
- Sequence Content: "GUUAACGGUCAUAGGCCAUGGAAACUAGGAGCACCAUUUCGCUGCCAGUGAAGAAAUGAACAAAGAAAAUCUGGGCCAGGCAGGCAUCAAAAGAAAUAGUCUUGCGCUCAACCAGAAAGUCUGUAAUCAUCAUAAGGGUA [U131C U132A]"
  self-cleavage: 0.94
- Sequence Content: "GUUAACGGUCAUAGGCCAUGGAAACUAGGAGCACCAUUUCGCUGCCAGUGAAGAAAUGAACAAAGAAAAUCUGGGCCAGGCGGGCAUCAAAAGAAAUAGUCUUGCGCUCAACCAGAAAGUCUGUAAUCAUUUCAAGGGUA [A82G U133C]"
  self-cleavage: 0.72
- Sequence Content: "GUUAACGGUCAUAGGCCAUGGUAACUAGGAGCACCAUUUCGCUGCCAGUGAAGAAAUGAACAAAGAAAAUCUGGGCCAGGCAGGCAUCAAAAGAAAUAGUCUUGCGCUCAACCAGAAAGUCUGUAAUCAUUUUAGGGGUA [A22U A135G]"
  self-cleavage: 0.4

Ask | Reported self-cleavage, variant GUUAACGGUCAUAGGCCAUGGAAACUAGGAGCACCAUUUCGCUGCCAGUGAAGAAAUGAACAAAGAAAAUCUGGGUCAGGCAGGCAUCAAAAGAAAUAGUCUUGCGCUCAACCAGAAGGUCUGUAAUCAUUUUAAGGGUA [C76U A118G] : ____
Reply | 0.1

Ask | Reported self-cleavage, variant GUUAACGGUCAUAGGCCAUGGAAACUAGGAGCACCAUUUCGCUGCCAGUGAAGAAAUGAACAAAGAAAAUCAGGGCCAGGCAGGCAACAAAAGAAAUAGUCUUGCGCUCAACCAGAAAGUCUGUAAUCAUUUUAAGGGUA [U72A U87A] : ____
Reply | 0.37

Ask | Reported self-cleavage, variant GUUAACGGUCAUAGGCCAUGGAAACUAGGAGCACCAUUUCGCUGCCAGUGAAGAAUUGAACAAAGAAAAUCUGGGCCAGGCAGGCAUCAAAAGAACUAGUCUUGCGCUCAACCAGAAAGUCUGUAAUCAUUUUAAGGGUA [A56U A96C] : ____
Reply | 0.35

Ask | Reported self-cleavage, variant GUUAACGGUCAUAGGCCAUGGAAACUAGGAGCACCAUCUCGCUGCCAGUGAAGAAAUGAACAAAGAAAAUCUGGGCCAGGCAGGCAUCAAAAGAAAUAGUCUGGCGCUCAACCAGAAAGUCUGUAAUCAUUUUAAGGGUA [U38C U103G] : ____
Reply | 0.03

Ask | Reported self-cleavage, variant GUUAACGGUCAUAGGCCAUGGAAACUAGGAGCACCAUUCCGCUGCCAGUGAAGAAAUGAACAAAGAAAAUCUGGGCCAGGCAGGCAUCAAAAGAAAUAGUCUUGCGCUCAACCAGAGAGUCUGUAAUCAUUUUAAGGGUA [U39C A117G] : ____
Reply | 1.95

Ask | Reported self-cleavage, variant GUUAACGGUCAUAGGCCAUGGAAACUAGGAGCACCAUCUCGCUGCCAGUGAAGAAAUGAACAAAGAAAAUCCGGGCCAGGCAGGCAUCAAAAGAAAUAGUCUUGCGCUCAACCAGAAAGUCUGUAAUCAUUUUAAGGGUA [U38C U72C] : ____
Reply | 0.27

Ask | Reported self-cleavage, variant GUUAACGGUCAUAGGCCAUGGAAACUAGGAGCACCAUUUCGCUGCCAGUGAAGAAAUGAACAACGAAAAUCUGGGCCAGGCUGGCAUCAAAAGAAAUAGUCUUGCGCUCAACCAGAAAGUCUGUAAUCAUUUUAAGGGUA [A64C A82U] : ____
Reply | 0.26
